# Assay remarks: in vitro
# Assay setup: rat, gh3-tre-luc cells, AC50 (uM) modified / 1000
Where a name gives a salt, the structure may show the parent alone.
Attribute: CC50 at 24 h

Solved entries (count: 8):
[
  {
    "Molecule": "CCO/N=C(\\CC)C1=C(O)CC(c2c(C)cc(C)cc2C)CC1=O (stereo not drawn)",
    "CC50 at 24 h": "> 90 µM"
  },
  {
    "Molecule": "O=c1[nH]cnc2[nH]cc(CN3CCCCC3)c12",
    "CC50 at 24 h": "> 50 µM"
  },
  {
    "Molecule": "Nc1cccc(N)c1 [1,3-Benzenediamine dihydrochloride]",
    "CC50 at 24 h": "> 90 µM"
  },
  {
    "Molecule": "CCCCC(=O)O[C@H]1CC[C@H]2[C@@H]3CCc4cc(O)ccc4[C@H]3CC[C@]12C [Estradiol valerate]",
    "CC50 at 24 h": "41.5 µM"
  },
  {
    "Molecule": "CC(=O)Oc1ccc(C2(c3ccc(OC(C)=O)cc3)C(=O)Nc3ccccc32)cc1 [Oxyphenisatin acetate]",
    "CC50 at 24 h": "> 50 µM"
  },
  {
    "Molecule": "O=[N+]([O-])c1ccc2c(c1)Cc1ccccc1-2",
    "CC50 at 24 h": "> 90 µM"
  },
  {
    "Molecule": "Nc1ccccc1S(=O)(=O)c1ccccc1",
    "CC50 at 24 h": "> 90 µM"
  },
  {
    "Molecule": "Cc1cc(=O)n(-c2ccccc2)n1C",
    "CC50 at 24 h": "> 50 µM"
  }
]

Attention now turns to another entry.
The molecule identified as C[C@H](O)C(=O)Nc1c(I)c(C(=O)NC(CO)CO)c(I)c(C(=O)NC(CO)CO)c1I registered its CC50 at 24 h at > 20 µM
